Molecular target: HLA-A*32:07
Assay: IEDB peptide-MHC binding, purified MHC/competitive/fluorescence; filed as Kd, often an IC50 or EC50 that approximates it; bounds were set here for any values at or beyond the usual limits of such assays
Details: source organism: West Nile virus
readout: Kd (nM)

# sequence-content, readout, data-value
records = [
    ("ETTNWLWTF", "Kd", 1.7),
]

###

Target: HLA-A*03:01
Assay: IEDB peptide-MHC binding, purified MHC/direct/fluorescence; filed as Kd, often an IC50 or EC50 that approximates it; bounds were set here for any values at or beyond the usual limits of such assays
Conditions: source organism: Mycobacterium tuberculosis
pKd: −log10 of the molar value.
readout: pKd

# sequence-content, data-value
rows = [
    ("AAMVLLLRK", 7.10),
]

Measured values drawn from the Immune Epitope Database (IEDB) for this set.
